Each recorded value in this set is attributed to ChEMBL document CHEMBL1687704.

Experiment: Plasma concentration in Balb-C mouse at 100 umol/kg, po after 1 hr
Assay type: ADME, organism-based
Attribute Measured: concentration at 1 h (µM)
Please respond with the number in µM and leave the unit unwritten.

Sample `O=C(O)c1cnn(-c2nc3cc(C(F)(F)F)c(F)cc3[nH]2)c1` ; concentration at 1 h observed: 14

---

Assay: Plasma concentration in Balb-C mouse at 100 umol/kg, po after 6 hrs
Assay type: ADME, organism-based
Attribute Measured: concentration at 6 h (nM)
Please respond with the number in nM and leave the unit unwritten.

Sample `O=C(O)c1cnn(-c2nc3cc(C(F)(F)F)c(F)cc3[nH]2)c1` ; concentration at 6 h observed: 100
